Biological target: WEE1 (Homo sapiens, UniProt P30291+Q96SW2)
Construct: C-terminal ePL-tagged (DiscoverX, Fremont, CA) full-length WEE1 expression construct; expressed in transfected cells; host or cells: LentiX-HEK293T (Invitrogen), lentivirally transduced; the cells also over-express GSPT1-GN
Sequence (P30291 whole entry): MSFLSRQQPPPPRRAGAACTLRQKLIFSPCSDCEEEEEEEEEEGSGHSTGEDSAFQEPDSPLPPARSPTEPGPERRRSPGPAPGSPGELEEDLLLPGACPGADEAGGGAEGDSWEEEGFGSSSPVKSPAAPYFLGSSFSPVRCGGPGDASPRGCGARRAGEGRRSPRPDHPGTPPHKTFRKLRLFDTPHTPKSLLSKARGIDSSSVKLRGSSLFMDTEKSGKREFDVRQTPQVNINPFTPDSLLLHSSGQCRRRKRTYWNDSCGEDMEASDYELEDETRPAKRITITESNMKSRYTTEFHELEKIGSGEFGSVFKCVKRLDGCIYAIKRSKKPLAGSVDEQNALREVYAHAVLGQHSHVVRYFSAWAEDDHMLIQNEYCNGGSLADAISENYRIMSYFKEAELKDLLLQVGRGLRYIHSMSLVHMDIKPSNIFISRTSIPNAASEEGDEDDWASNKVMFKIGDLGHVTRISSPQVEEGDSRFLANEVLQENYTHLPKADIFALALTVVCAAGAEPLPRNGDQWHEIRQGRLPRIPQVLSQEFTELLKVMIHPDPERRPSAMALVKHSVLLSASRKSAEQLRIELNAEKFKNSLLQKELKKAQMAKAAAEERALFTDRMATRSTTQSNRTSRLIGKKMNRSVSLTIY
Sequence (Q96SW2 whole entry): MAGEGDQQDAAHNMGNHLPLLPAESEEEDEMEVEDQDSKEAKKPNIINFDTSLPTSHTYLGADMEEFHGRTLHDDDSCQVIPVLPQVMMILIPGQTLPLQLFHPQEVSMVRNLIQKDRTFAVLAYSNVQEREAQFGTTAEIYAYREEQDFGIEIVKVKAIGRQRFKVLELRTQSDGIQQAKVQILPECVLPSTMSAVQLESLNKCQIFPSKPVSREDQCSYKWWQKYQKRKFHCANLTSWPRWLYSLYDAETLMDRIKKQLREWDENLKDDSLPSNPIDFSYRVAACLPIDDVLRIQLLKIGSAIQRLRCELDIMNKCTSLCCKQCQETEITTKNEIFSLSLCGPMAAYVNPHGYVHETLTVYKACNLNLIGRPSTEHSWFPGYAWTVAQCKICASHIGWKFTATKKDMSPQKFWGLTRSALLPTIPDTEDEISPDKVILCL
Sequence (Q16531 whole entry partner): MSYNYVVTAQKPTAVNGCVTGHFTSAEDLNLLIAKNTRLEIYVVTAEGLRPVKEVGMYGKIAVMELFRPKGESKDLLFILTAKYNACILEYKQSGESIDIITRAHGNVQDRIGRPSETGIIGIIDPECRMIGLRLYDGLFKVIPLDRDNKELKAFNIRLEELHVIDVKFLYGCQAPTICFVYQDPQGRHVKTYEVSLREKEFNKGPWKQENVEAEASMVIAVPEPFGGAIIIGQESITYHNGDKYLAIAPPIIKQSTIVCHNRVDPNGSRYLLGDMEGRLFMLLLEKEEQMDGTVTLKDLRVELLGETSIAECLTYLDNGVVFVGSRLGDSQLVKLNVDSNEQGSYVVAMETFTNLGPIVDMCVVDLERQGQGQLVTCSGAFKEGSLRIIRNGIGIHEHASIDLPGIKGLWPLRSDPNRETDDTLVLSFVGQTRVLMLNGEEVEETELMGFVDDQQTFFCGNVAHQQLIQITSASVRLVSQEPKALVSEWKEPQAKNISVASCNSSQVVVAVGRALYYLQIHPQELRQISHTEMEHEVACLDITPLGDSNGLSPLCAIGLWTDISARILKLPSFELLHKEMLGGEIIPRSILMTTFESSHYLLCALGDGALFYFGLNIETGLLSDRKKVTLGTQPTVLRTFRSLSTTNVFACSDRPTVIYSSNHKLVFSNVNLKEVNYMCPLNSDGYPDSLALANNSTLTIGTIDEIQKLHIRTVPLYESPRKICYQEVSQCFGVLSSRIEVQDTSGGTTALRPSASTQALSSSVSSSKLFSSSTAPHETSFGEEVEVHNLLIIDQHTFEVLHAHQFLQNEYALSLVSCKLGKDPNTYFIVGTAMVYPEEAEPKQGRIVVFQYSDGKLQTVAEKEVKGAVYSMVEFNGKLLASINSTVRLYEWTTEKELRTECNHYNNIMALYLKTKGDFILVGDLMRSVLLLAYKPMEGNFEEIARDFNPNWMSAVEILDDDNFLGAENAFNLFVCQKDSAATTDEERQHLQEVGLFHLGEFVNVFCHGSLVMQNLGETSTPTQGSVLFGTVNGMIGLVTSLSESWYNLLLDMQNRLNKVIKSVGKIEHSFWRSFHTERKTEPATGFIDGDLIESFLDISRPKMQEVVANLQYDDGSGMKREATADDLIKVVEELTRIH
Test: WEE1-ePL degradation assay (293T-LentiX, InCELL Hunter luminescence, 4 hr)
Type: cell-based
Conditions: LentiX-HEK293T cells expressing WEE1-ePL, 4 hr incubation; read-out: 293T-LentiX WEE1-ePL Degradation 4 hr EC50
Consider the cut-off 4 nM. If the recorded DC50 is strictly smaller, the label is 1.0; if not, the label is 0.0.

Problem: For this molecule, is DC50 lower than 4 nM? O=C1CC[C@H](N2Cc3cc(O[C@@H]4CN(Cc5cc(F)c6ncc(N7CCOCC7)cc6c5)C[C@H]4COC(F)(F)F)ccc3C2=O)C(=O)N1 [Example 140]
Solution: 1.0

Problem: For this molecule, is DC50 lower than 4 nM? COC[C@@H]1CN(Cc2ccc3nc(C4CCOCC4)cnc3c2)C[C@H]1Oc1ccc2c(c1)CN([C@H]1CCC(=O)NC1=O)C2=O [Example 136]
Solution: 1.0

Problem: For this molecule, is DC50 lower than 4 nM? COC[C@@H]1CN(Cc2ccc3nc(N4CCN(C(C)=O)C5(CC5)C4)ncc3c2)C[C@H]1Oc1ccc2c(c1)CN([C@H]1CCC(=O)NC1=O)C2=O [Example 94]
Solution: 1.0

Problem: For this molecule, is DC50 lower than 4 nM? COC[C@@H]1CN(Cc2cc(F)c3nc(C4CN(C(C)=O)C4)ncc3c2)C[C@H]1Oc1ccc2c(c1)CN([C@H]1CCC(=O)NC1=O)C2=O [Example 45]
Solution: 0.0

Problem: For this molecule, is DC50 lower than 4 nM? COC[C@@H]1CN(Cc2cc3ccc(C4CCN(CC(F)(F)F)CC4)cc3cn2)C[C@H]1Oc1ccc2c(c1)CN([C@H]1CCC(=O)NC1=O)C2=O [Example 38]
Solution: 1.0

Problem: For this molecule, is DC50 lower than 4 nM? COC[C@@H]1CN(Cc2cc(F)c3nc(C(=O)N(C)C)ccc3c2)C[C@H]1Oc1ccc2c(c1)CN([C@H]1CCC(=O)NC1=O)C2=O [Example 58]
Solution: 0.0

Problem: For this molecule, is DC50 lower than 4 nM? COC[C@@H]1CN(Cc2cc(F)c3nc(N4CCC(OC)C4)ccc3c2)C[C@H]1Oc1ccc2c(c1)CN([C@H]1CCC(=O)NC1=O)C2=O (single isomer, unassigned) [Example 97]
Solution: 1.0

Problem: For this molecule, is DC50 lower than 4 nM? O=C1CC[C@H](N2Cc3cc(O[C@H]4CCN(Cc5cc(F)c6nc(N7C[C@@H]8CCO[C@@H]8C7)ncc6c5)C4)ccc3C2=O)C(=O)N1 (single isomer, unassigned) [Example 19]
Solution: 0.0

Problem: For this molecule, is DC50 lower than 4 nM? O=C1CCC(N2C(=O)c3ccc(O[C@H]4CCN(Cc5cc(F)c6nc(C7CCOCC7)ccc6c5)C4)cc3C2=O)C(=O)N1 (single isomer, unassigned) [Example 26]
Solution: 0.0

* * *

Target: WEE1 (Homo sapiens, UniProt P30291+Q96SW2)
Construct: C-terminal ePL-tagged (DiscoverX, Fremont, CA) full-length WEE1 expression construct; expressed in transfected cells; host or cells: LentiX-HEK293T (Invitrogen), lentivirally transduced; the cells also over-express GSPT1-GN
Experiment: WEE1-ePL degradation assay (293T-LentiX, InCELL Hunter luminescence, 4 hr)
Type: cell-based
Details: lower limit of fit, % of DMSO control signal remaining; 4 hr
Task for the reader: assign each of the following molecules its reported 293T-LentiX WEE1-ePL Degradation 4 hr YMin (%).
Report as a plain number; the unit % is understood.

Problem: What does the record list as 293T-LentiX WEE1-ePL Degradation 4 hr YMin (%) for COC[C@@H]1CN(Cc2ccc3nc(N4C[C@@H]5CCO[C@@H]5C4)ccc3c2)C[C@H]1Oc1ccc2c(c1)CN([C@H]1CCC(=O)NC1=O)C2=O (single isomer, unassigned) [Example 16] ?
Solution: 29.6

Problem: What does the record list as 293T-LentiX WEE1-ePL Degradation 4 hr YMin (%) for COC[C@@H]1CN(Cc2cc(F)c3nc(C4CCCO4)ccc3c2)C[C@H]1Oc1ccc2c(c1)CN(C1CCC(=O)NC1=O)C2=O (relative stereo) [Example 65] ?
Solution: 27.3

Problem: What does the record list as 293T-LentiX WEE1-ePL Degradation 4 hr YMin (%) for COC[C@@H]1CN(Cc2ccc3nc(C4CCN(C(C)=O)C(C)(C)C4)ncc3c2)C[C@H]1Oc1ccc2c(c1)CN([C@H]1CCC(=O)NC1=O)C2=O (some centres unmarked) [Example 82] ?
Solution: 27.5

Problem: What does the record list as 293T-LentiX WEE1-ePL Degradation 4 hr YMin (%) for COC[C@@H]1CN(Cc2cc(F)c3nc(C4CCC(O)CC4)ccc3c2)C[C@H]1Oc1ccc2c(c1)CN([C@H]1CCC(=O)NC1=O)C2=O (relative stereo) [Example 54] ?
Solution: 31.2

Problem: What does the record list as 293T-LentiX WEE1-ePL Degradation 4 hr YMin (%) for COC[C@@H]1CN(Cc2cc(F)c3nc(N4CCN(C(C)=O)C5(CC5)C4)ncc3c2)C[C@H]1Oc1ccc2c(c1)CN([C@H]1CCC(=O)NC1=O)C2=O [Example 85] ?
Solution: 27.9

Problem: What does the record list as 293T-LentiX WEE1-ePL Degradation 4 hr YMin (%) for COC[C@@H]1CN(Cc2cc(F)c3nc(N4CCC(OC)C4)ccc3c2)C[C@H]1Oc1ccc2c(c1)CN([C@H]1CCC(=O)NC1=O)C2=O (single isomer, unassigned) [Example 98] ?
Solution: 29.4

Problem: What does the record list as 293T-LentiX WEE1-ePL Degradation 4 hr YMin (%) for COC[C@@H]1CN(Cc2ccc3nc(N4CCN(C(C)=O)C5(COC5)C4)ccc3c2)C[C@H]1Oc1ccc2c(c1)CN([C@H]1CCC(=O)NC1=O)C2=O [Example 90] ?
Solution: 21.0

Problem: What does the record list as 293T-LentiX WEE1-ePL Degradation 4 hr YMin (%) for O=C1CC[C@H](N2Cc3cc(O[C@@H]4CN(Cc5ccc6nc(N7C[C@H]8CCO[C@H]8C7)ccc6c5)CC4(F)F)ccc3C2=O)C(=O)N1 (single isomer, unassigned) [Example 6] ?
Solution: 27.4

Problem: What does the record list as 293T-LentiX WEE1-ePL Degradation 4 hr YMin (%) for COC[C@@H]1CN(Cc2cc(F)c3nc(C4CCC(C(C)(C)O)CC4)ccc3c2)C[C@H]1Oc1ccc2c(c1)CN([C@H]1CCC(=O)NC1=O)C2=O (relative stereo) [Example 57] ?
Solution: 30.3

Problem: What does the record list as 293T-LentiX WEE1-ePL Degradation 4 hr YMin (%) for O=C1CC[C@H](N2Cc3cc(O[C@H]4CCN(Cc5ccc6nc([C@H]7CCO[C@@]8(CCOC8)C7)ccc6c5)C4)ccc3C2=O)C(=O)N1 (relative stereo) [Example 22] ?
Solution: 31.3

Problem: What does the record list as 293T-LentiX WEE1-ePL Degradation 4 hr YMin (%) for COC[C@@H]1CN(Cc2cc(F)c3nc(C4(O)CCOCC4)ccc3c2)C[C@H]1Oc1ccc2c(c1)CN([C@H]1CCC(=O)NC1=O)C2=O [Example 60] ?
Solution: 27.4

Problem: What does the record list as 293T-LentiX WEE1-ePL Degradation 4 hr YMin (%) for COC[C@@H]1CN(Cc2cc(F)c3nc(N4CCN(CC(F)(F)F)CC4)ncc3c2)C[C@H]1Oc1ccc2c(c1)CN([C@H]1CCC(=O)NC1=O)C2=O [Example 35] ?
Solution: 28.1

Problem: What does the record list as 293T-LentiX WEE1-ePL Degradation 4 hr YMin (%) for COC[C@@H]1CN(Cc2cc(F)c3nc(COC4CCN(C)CC4)ccc3c2)C[C@H]1Oc1ccc2c(c1)CN([C@H]1CCC(=O)NC1=O)C2=O [Example 34] ?
Solution: 21.8

Problem: What does the record list as 293T-LentiX WEE1-ePL Degradation 4 hr YMin (%) for O=C1CC[C@H](N2Cc3cc(O[C@H]4CCN(Cc5cc(F)c6nc(N7C[C@@H]8CCO[C@@H]8C7)ccc6c5)C4)ccc3C2=O)C(=O)N1 (single isomer, unassigned) [Example 81] ?
Solution: 32.9

Problem: What does the record list as 293T-LentiX WEE1-ePL Degradation 4 hr YMin (%) for COC[C@@H]1CN(Cc2cc3ccc(C4CCOCC4)nc3cn2)C[C@H]1Oc1ccc2c(c1)CN([C@H]1CCC(=O)NC1=O)C2=O [Example 135] ?
Solution: 35.7

Problem: What does the record list as 293T-LentiX WEE1-ePL Degradation 4 hr YMin (%) for COC[C@@H]1CN(Cc2cc(F)c3nc(C45CCC(C(C)(C)O)(CC4)CC5)ccc3c2)C[C@H]1Oc1ccc2c(c1)CN([C@H]1CCC(=O)NC1=O)C2=O [Example 119] ?
Solution: 23.6

Problem: What does the record list as 293T-LentiX WEE1-ePL Degradation 4 hr YMin (%) for COC[C@@H]1CN(Cc2cc3ccc(N4CCOCC4)cc3cn2)C[C@H]1Oc1ccc2c(c1)CN([C@H]1CCC(=O)NC1=O)C2=O [Example 28] ?
Solution: 29.1

Problem: What does the record list as 293T-LentiX WEE1-ePL Degradation 4 hr YMin (%) for COC[C@@H]1CN(Cc2cc(F)c3nc(C45CC(C(C)(C)O)(C4)C5)ccc3c2)C[C@H]1Oc1ccc2c(c1)CN([C@H]1CCC(=O)NC1=O)C2=O [Example 56] ?
Solution: 29.9

Problem: What does the record list as 293T-LentiX WEE1-ePL Degradation 4 hr YMin (%) for CC(C)(O)[C@@H]1CN(Cc2ccc3nc(C4CCOCC4)ccc3c2)C[C@H]1Oc1ccc2c(c1)CN([C@H]1CCC(=O)NC1=O)C2=O (racemic) [Example 137] ?
Solution: 40.9

Problem: What does the record list as 293T-LentiX WEE1-ePL Degradation 4 hr YMin (%) for COC[C@@H]1CN(Cc2cc(F)c3nc(C4CCCOC4)ccc3c2)C[C@H]1Oc1ccc2c(c1)CN([C@H]1CCC(=O)NC1=O)C2=O (relative stereo) [Example 70] ?
Solution: 28.9
